- TEST_NAME: in vivo
- RUN_CONDITIONS: Sprague-Dawley, rat, po, 10 mg/kg
MEASURED_ATTRIBUTE: AUC at 24 h (ng·h/mL)
# value in ng·h/mL; strip the unit string

Write down AUC at 24 h measured for item Cn1ccnc1SC[C@H]1CCN(S(=O)(=O)c2ccc3c(c2)CCO3)C[C@@H]1F 830

====

- TEST_NAME: in vivo
- RUN_CONDITIONS: Sprague-Dawley, rat, iv, 1 mg/kg
MEASURED_ATTRIBUTE: MRT at 24 h (h)
# value in h; strip the unit string

Write down MRT at 24 h measured for item Cn1ccnc1SC[C@H]1CCN(S(=O)(=O)c2ccc3c(c2)CCO3)C[C@@H]1F 10.7

====

- TEST_NAME: in vivo
- RUN_CONDITIONS: Sprague-Dawley, rat, brain / plasma, iv, 0.2 mg/kg
# Kp values compiled below

O=S(=O)(c1ccc2c(c1)CCO2)N1CCC(CSc2nccs2)CC1 | 0.27
Cc1cn(C)c(SCC2CCN(S(=O)(=O)c3ccc4c(c3)CCO4)CC2)n1 | 0.07
Cn1ccnc1SCC1CCN(S(=O)(=O)c2ccc3c(c2)CCO3)CC1 | 0.08
Cn1ccnc1SCC1CCN(S(=O)(=O)c2ccc3c(c2)OCO3)CC1 | 0.53
Cn1ccnc1SCC1CCN(S(=O)(=O)c2ccc3ncsc3c2)CC1 | < 0.48
CC(Sc1nccn1C)C1CCN(S(=O)(=O)c2ccc3c(c2)CCO3)CC1 (stereo not drawn) | 0.22
Cc1nnc(SCC2CCN(S(=O)(=O)c3ccc4c(c3)CCO4)CC2)s1 | 1.25

Write down Kp measured for item Cc1nc(SCC2CCN(S(=O)(=O)c3ccc4c(c3)CCO4)CC2)n(C)c1C 0.22

====

# Kp uu values compiled below
- TEST_NAME: in vivo
- RUN_CONDITIONS: Sprague-Dawley, rat, brain / plasma, iv, 0.2 mg/kg
No unit in the answer, please; the number alone is enough.

Cc1nnc(SCC2CCN(S(=O)(=O)c3ccc4c(c3)CCO4)CC2)s1 | 1.1
CC(Sc1nccn1C)C1CCN(S(=O)(=O)c2ccc3c(c2)CCO3)CC1 (stereo not drawn) | 0.29
Cn1ccnc1SCC1CCN(S(=O)(=O)c2ccc3c(c2)CCO3)CC1 | 0.11
O=S(=O)(c1ccc2c(c1)CCO2)N1CCC(CSc2nccs2)CC1 | 0.23
Cc1cn(C)c(SCC2CCN(S(=O)(=O)c3ccc4c(c3)CCO4)CC2)n1 | 0.19
Cc1nc(SCC2CCN(S(=O)(=O)c3ccc4c(c3)CCO4)CC2)n(C)c1C | 0.32

Write down Kp uu measured for item Cn1ccnc1SCC1CCN(S(=O)(=O)c2ccc3c(c2)OCO3)CC1 1.88

====

- TEST_NAME: in vivo
- RUN_CONDITIONS: Sprague-Dawley, rat, po, 10 mg/kg
MEASURED_ATTRIBUTE: bioavailability at 24 h (%)
# value in %; strip the unit string

Write down bioavailability at 24 h measured for item Cn1ccnc1SC[C@H]1CCN(S(=O)(=O)c2ccc3c(c2)CCO3)C[C@@H]1F 27.6

====

# CLint scaled at […], 1 µM values compiled below
- TEST_NAME: in vitro
- RUN_CONDITIONS: human, liver microsomes
// unit must come after the numeric part

Cn1ccnc1SCC1CCN(S(=O)(=O)c2ccc3c(c2)CCO3)CC1 | 1270 mL/min/kg

Let's switch to this molecule now.
Write down CLint scaled at […], 1 µM measured for item Cn1ccnc1SC[C@H]1CCN(S(=O)(=O)c2ccc3c(c2)CCO3)C[C@@H]1F 318 mL/min/kg
